# Experiment Description: NCI Yeast Anticancer Drug Screen. Data for the cln2 rad14 strain (AID 165);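 further: 0% = growth equal to vehicle treated cultures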
# Run Conditions: S. cerevisiae cln2 rad14 strain, at 5.0 µM (retest, dose inferred, filed as 0.5), hits give high values
This is part of a sample that, as a whole, favours compounds with a hit. Of some 79,000 tested, about 15% had one in any assay.
Value Kind: growth inhibition (%)
Kindly answer with a numeric value in %, unit omitted.

Entry under review: Nc1nc2nn(-c3ccc(C(=O)O)cc3)nc2c(=O)[nH]1 . Reported growth inhibition?
4

Likewise for CN(C)/N=C(/CC(O)(C(F)(F)F)C(F)(F)F)c1ccc([N+](=O)[O-])cc1 ?
12

CN(C)CCCNc1ccc(O)c2sc3ccccc3c(=O)c12 , same question.
-3

Also check NC(CCC(=O)NC(CS(=O)(=O)O)C(=O)O)C(=O)O (stereo unspecified)
3

Same thing, different compound: Cc1cc2nc(CC(=O)c3ccncc3)c(CC(=O)c3ccncc3)nc2cc1C
25

Queued: COC(=O)CCC(NC(=S)N/N=C/c1ccccn1)C(=O)OC (stereo unspecified)
-11

* * *

# Experiment Description: NCI Yeast Anticancer Drug Screen. Data for the sgs1 mgt1 strain (AID 161);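 further: 0% = growth of cultures given vehicle only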
# Run Conditions: S. cerevisiae sgs1 mgt1 strain, at 50.0 µM (retest, dose inferred, filed as 5.0), hits give high values
This is part of a sample that, as a whole, favours compounds with a hit. Of some 79,000 tested, about 15% had one in any assay.
Value Kind: growth inhibition (%)
The reply should contain only the number, in %.

Fill in: growth inhibition of CC1=C(/C=C/C(C)=N/NC(N)=S)C(C)(C)CCC1 is ___
88

Entry to check: CCC[CH2][Sn]([CH2]CCC)([S]/C(C#N)=N/N=C/c1ccc(N(C)C)cc1)[S]/C(C#N)=N/N=C/c1ccc(N(C)C)cc1
98

And for Nc1c(O)c(Cl)cc(Cl)c1Cl ?
80

And the next one, CC(C)(C)NC1=NC(C(F)(F)F)(C(F)(F)F)NC(=O)N1 ?
88

Queued: CC(=O)c1c2c(cc3c1CC1(C3)Cc3ccc4c(c3C1=O)CCC4)CCC2 (stereo not given)
7

* * *

# Experiment Description: NCI Yeast Anticancer Drug Screen. Data for the mec2-1 strain (AID 157)
# Run Conditions: S. cerevisiae mec2-1 strain, at 50.0 µM (retest, dose inferred, filed as 5.0), hits give high values
The panel holds about 79,000 compounds, 15% with a hit somewhere; the sample as a whole holds those more often.
Threshold check on growth inhibition: at or above 90% gives met, strictly below gives not met.

Tell me whether growth inhibition is at least 90% here: Nc1c(/C=C/c2cc3cc(C4=NCCN4)ccc3o2)[nH]c2cc(C3=NCCN3)ccc12
met

What about this compound? Cc1c2ccccc2c(CSC(=N)N)c2ccccc12
met

Can you check CC(=Nc1ccc(N(C)C)cc1)c1ccccc1 next?
not met

What do you have for O=Cc1cc(O)ccc1Br ?
met

Another compound to look at: O=C(Nc1ccc(S(=O)(=O)NC2CCCCC2)cc1)OC1CCCCC1
met

For CCS(=O)(=O)/C=C/c1ccc2ccccc2n1 then?
not met

How about O=c1ccccn1CCc1cccc2cc(O)ccc12 ?
not met

Here is the next compound: CCOc1ccccc1N1C(=O)C=CC1=O
not met

Now try Fc1ccc(CN2COc3c(cc(Cl)c4cccnc34)C2)cc1 .
met

Same for CCCCCCCCCCCC(=O)OCC1OC(n2cc(F)c(=O)[nH]c2=O)C(N)C(O)C1O (stereo unspecified)
not met
